# System: Hepatitis C virus
# experiment description: Antiviral activity against Hepatitis C virus genotype 1b infected in human Huh-7.5.1 cells after 48 to 72 hrs by luciferase reporter assay
# Type: functional, organism-based, Hepacivirus hominis
pEC50: −log10 of the molar value.
Lab note: anything with pEC50 at or over 5 counts as YES; the rest go in NO.

Before answering, review these 5 worked examples.
CCCCCCCCCCCCCCCCOCCCOP(=O)(O)CO[C@H](COC)Cn1cnc2c(=O)[nH]c(N)nc21 :: NO
CCCCCCCCCCCCCCCCCCOCCOP(=O)(O)CO[C@@H](COC)Cn1cnc2c(N)nc(N)nc21 :: NO
CCCCCCCCCCCCCCCCCCOCCOP(=O)(O)CO[C@H](COC)Cn1ccc(N)nc1=O :: NO
CCCCCCCCCCCCCCCCOCCCOP(=O)(O)CO[C@H](COC)Cn1cnc2c(OC)nc(N)nc21 :: NO
CCCCCCCCCCCCCCCCCCOCCOP(=O)(O)CO[C@H](COC)Cn1cnc2c(N)nc(N)nc21 :: NO

Turning now to a further record.
## Input Decide: pEC50 of `CCCCCCCCCCCCCCCCCCOCCOP(=O)(O)CO[C@H](COC)Cn1cnc2c(N)ncnc21` >= 5?
## Output YES

----------
# Test system: Hepatitis C virus
# experiment description: Antiviral activity against HCV JFH-1 infected in human Huh-7.5.1 cells after 48 to 72 hrs by luciferase reporter assay
# Type: functional, organism-based, Hepacivirus hominis
# assay setup: JFH-1, Huh-7.5.1
assay endpoint: EC50 (µM)
Give bare numbers, in µM.

CCCCCCCCCCCCCCCCOCCCOP(=O)([O-])COC(COCC)Cn1cnc2c(=O)[nH]c(N)nc21.[Na+] (racemic) :: 13.2
CCCCCCCCCCCCCCCCOCCCOP(=O)(O)CO[C@H](COC)Cn1cnc2c(N)ncnc21 :: 4.64
CCCCCCCCCCCCCCCCCCOCCOP(=O)(O)CO[C@@H](COC)Cn1cnc2c(N)ncnc21 :: 5.33
CCCCCCCCCCCCCCCCCCOCCOP(=O)([O-])CO[C@@H](COC)Cn1cnc2c(=O)[nH]c(N)nc21.[Na+] :: 12.4
CCCCCCCCCCCCCCCCCCOCCOP(=O)(O)CO[C@@H](COC)Cn1cnc2c(N)nc(N)nc21 :: 25.8
CCCCCCCCCCCCCCCCOCCCOP(=O)(O)CO[C@H](COC)Cn1cnc2c(OC)ncnc21 :: 12.5

Proceeding to the next compound to report its EC50.
## Input Can you look up EC50 on Hepatitis C virus for `CCCCCCCCCCCCCCCCOCCCOP(=O)(O)CO[C@H](COC)Cn1cnc2c(N)nc(N)nc21` ?
## Output 23.6

----------
# Tested on: Vaccinia virus
# experiment description: Antiviral activity against Vaccinia virus infected in human HFF cells after 3 days by Plaque reduction assay
# Assay type: functional, organism-based
# assay setup: Orthopoxvirus vaccinia, 72 h
assay endpoint: EC50 (µM)
Give bare numbers, in µM.

## Input Given `CCCCCCCCCCCCCCCCCCOCCOP(=O)(O)CO[C@H](COC)Cn1cnc2c(N)ncnc21` , state its recorded EC50.
## Output 18.3

----------
# Tested on: Hepatitis C virus
# experiment description: Antiviral activity against HCV JFH-1 infected in human Huh-7.5.1 cells after 48 to 72 hrs by luciferase reporter assay
# Type: functional, organism-based, Hepacivirus hominis
# assay setup: JFH-1, Huh-7.5.1
pEC50: −log10 of the molar value.
I would appreciate it if you labelled entries t when pEC50 is 5 or higher, otherwise f.

CCCCCCCCCCCCCCCCOCCCOP(=O)(O)COC(COC(C)C)Cn1cnc2c(N)ncnc21 (racemic) :: f
CCCCCCCCCCCCCCCCCCOCCOP(=O)(O)CO[C@H](CO)Cn1cnc2c(N)ncnc21 :: t
CCCCCCCCCCCCCCCCOCCCOP(=O)(O)CO[C@H](COC)Cn1cnc2c(OC)nc(N)nc21 :: f

In the following, a different compound is considered.
## Input Would you say `CCCCCCCCCCCCCCCCCCOCCOP(=O)(O)CO[C@H](COC)Cn1cnc2c(N)ncnc21` shows pEC50 at minimum 5?
## Output t
